Target: caspase-3
Experiment: cell-based or functional assay
Numbered stars: 1 amine (or outer) side, 2 acyl side, 3 side chain; on linkers, the order of the positions; unused ones are H or OH. Square brackets hold non-standard residues; d marks the D form. Ends that are not written are not given here. * marks the point of attachment. O(CA) = ornithine chloroamidine, N=C(CCl)NCCC[C@H](N[*:1])C(=O)[*:2]; Orn(fluoroacetimidoyl) = N=C(CF)NCCC[C@H](N)C(=O)O; Moc = COC(=O)*
OUTCOME_MEASURE: IC50 values (µM), caspase-3 activity assay

Ac-YD[O(CA)]GS [CXP5.2-081] has a reported IC50 values (µM), caspase-3 activity assay of > 1000 µM

Given item Moc-TD[Orn(fluoroacetimidoyl)]GS-OMe (SMILES COC(=O)N[C@H](C(=O)N[C@@H](CC(=O)O)C(=O)N[C@@H](CCCNC(=N)CF)C(=O)NCC(=O)N[C@@H](CO)C(=O)OC)[C@@H](C)O) [CXP5-101] , the value recorded as its IC50 values (µM), caspase-3 activity assay is > 1000 µM

Reported IC50 values (µM), caspase-3 activity assay ( Ac-KWH[Orn(fluoroacetimidoyl)]DFF-NH2 (SMILES CC(=O)N[C@@H](CCCCN)C(=O)N[C@@H](Cc1c[nH]c2ccccc12)C(=O)N[C@@H](Cc1c[nH]cn1)C(=O)N[C@@H](CCCNC(=N)CF)C(=O)N[C@@H](CC(=O)O)C(=O)N[C@@H](Cc1ccccc1)C(=O)N[C@@H](Cc1ccccc1)C(N)=O) [0748-09FA] ) = > 1000 µM
